# Tested on: human lymphoblast RPMI 8402
# ASSAY_NOTES: MTT-microtiter plate tetrazolinium cytotoxicity assay (Test B), RPMI 8402
# Format: cell-based
# EXPERIMENTAL_PARAMETERS: RPMI 8402 cells; 4 days of continuous drug exposure; read-out: Cytotoxicity IC50 RPMI
# Experimental: The cytotoxicity was determined using the MTT-microtiter plate tetrazolinium cytotoxicity assay (MTA) (See Chen A. Y. et al. Cancer Res. 1993, 53, 1332; Mosmann, T. J., J. Immunol. Methods 1983, 65, 55; and Carmichael, J. et al. Cancer Res. 1987, 47, 936).
PROPERTY_NAME: IC50 (nM)
Field format: number, assumed nM, no unit text.

INPUT: What does the data say about its IC50? Entry: COc1cc([C@@H]2c3cc4c(cc3[C@@H](O[C@@H]3O[C@@H]5CO[C@@H](c6cccs6)O[C@H]5[C@H](O)[C@H]3O)[C@H]3COC(=O)[C@H]23)OCO4)cc(OC)c1O [VM-26, teniposide, reference compound]
OUTPUT: 300

----------
# Tested on: camptothecin-resistant variant cell line, CPT-K5
# ASSAY_NOTES: MTT-microtiter plate tetrazolinium cytotoxicity assay (Test B), CPT-K5
# Assay type: cell-based, human
# EXPERIMENTAL_PARAMETERS: CPT-K5 camptothecin-resistant cells; 4 days of continuous drug exposure; read-out: Cytotoxicity IC50 CPT-K5
PROPERTY_NAME: pIC50
Recall that pIC50 is obtained by taking minus log10 of the concentration measured in molar.

INPUT: What does the data say about its pIC50? Entry: COc1cc([C@@H]2c3cc4c(cc3[C@@H](O[C@@H]3O[C@@H]5CO[C@@H](c6cccs6)O[C@H]5[C@H](O)[C@H]3O)[C@H]3COC(=O)[C@H]23)OCO4)cc(OC)c1O [VM-26, teniposide, reference compound]
OUTPUT: 6.30

----------
# STUDY_TARGET: human topoisomerase I (Homo sapiens)
# Construct: made in house
# Sequence (P11387 whole entry): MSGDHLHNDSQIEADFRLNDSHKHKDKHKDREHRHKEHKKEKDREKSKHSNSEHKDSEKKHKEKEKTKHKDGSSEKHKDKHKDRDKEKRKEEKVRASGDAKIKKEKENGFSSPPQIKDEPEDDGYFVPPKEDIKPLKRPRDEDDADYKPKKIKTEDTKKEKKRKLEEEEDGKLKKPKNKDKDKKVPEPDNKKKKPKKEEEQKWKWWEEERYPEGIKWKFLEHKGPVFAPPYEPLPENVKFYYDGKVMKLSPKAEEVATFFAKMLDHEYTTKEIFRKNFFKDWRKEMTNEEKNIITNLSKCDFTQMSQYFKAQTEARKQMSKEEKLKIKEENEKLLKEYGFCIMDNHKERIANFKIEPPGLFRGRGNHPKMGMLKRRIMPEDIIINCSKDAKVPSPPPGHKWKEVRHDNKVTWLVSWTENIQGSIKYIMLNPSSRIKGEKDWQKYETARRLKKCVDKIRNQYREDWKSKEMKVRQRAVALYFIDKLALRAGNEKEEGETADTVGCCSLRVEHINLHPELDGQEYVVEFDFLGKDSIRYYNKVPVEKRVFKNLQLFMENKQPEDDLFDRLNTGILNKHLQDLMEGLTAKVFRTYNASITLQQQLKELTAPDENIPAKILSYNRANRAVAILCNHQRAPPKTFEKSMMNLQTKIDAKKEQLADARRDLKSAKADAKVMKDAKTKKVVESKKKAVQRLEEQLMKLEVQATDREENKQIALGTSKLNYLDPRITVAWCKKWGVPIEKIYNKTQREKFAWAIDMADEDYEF
# ASSAY_NOTES: Topoisomerase I-mediated DNA cleavage assay (Test A)
# Type: biochemical
# EXPERIMENTAL_PARAMETERS: qualitative statement
PROPERTY_NAME: topoisomerase I poisoning activity (in words)

>>> print(df.to_string())
                            molecule_smiles           result
0     COc1cc2ncc3c4cc5c(cc4ccc3c2cc1OC)OCO5  potent activity
1  COc1cc2nc(C)c3c4cc5c(cc4ccc3c2cc1OC)OCO5  potent activity

----------
# STUDY_TARGET: human topoisomerase I (Homo sapiens)
# Construct: made in house
# ASSAY_NOTES: Topoisomerase I-mediated DNA cleavage assay (Test A)
# Type: biochemical
# EXPERIMENTAL_PARAMETERS: concentration relative to camptothecin (CPT = 1) producing the same cleavage on plasmid DNA; human topoisomerase I
PROPERTY_NAME: Topo I-mediated DNA cleavage (REC, Relative Effective Concentration)
Respond using a number only.

The following compounds have reported results that may help.
COMPOUND	RESULT
COc1cc2ccc3c4cc(N)ccc4ncc3c2cc1OC	50
COc1cc2ncc3c4cc5c(cc4ccc3c2cc1OC)OCO5	100
COc1cc2ccc3c4cc5c(cc4ncc3c2cc1OC)OCO5	25
COc1cc2ccc3c4cc(OCc5ccccc5)ccc4ncc3c2cc1OC	250
COc1cc2nc(C)c3c4cc5c(cc4ccc3c2cc1OC)OCO5	200
COc1cc2c[n+](C)c3c4cc5c(cc4ccc3c2cc1OC)OCO5 [Nitidine, reference compound]	1

INPUT: What does the data say about its Topo I-mediated DNA cleavage (REC, Relative Effective Concentration)? Entry: CC[C@@]1(O)C(=O)OCc2c1cc1n(c2=O)Cc2cc3ccccc3nc2-1 [CPT, camptothecin, reference compound]
OUTPUT: 1
